The following compounds are shown together with reported pKi values.
- TARGET UNDER TEST: Vitamin K-dependent protein C (Homo sapiens, UniProt P04070)
- Sequence (P04070 43-197 limits assumed): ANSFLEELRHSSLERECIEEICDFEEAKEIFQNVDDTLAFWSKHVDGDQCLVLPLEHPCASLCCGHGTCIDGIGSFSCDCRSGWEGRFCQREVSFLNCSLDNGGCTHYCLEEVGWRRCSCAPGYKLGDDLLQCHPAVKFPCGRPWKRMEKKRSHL
- Sequence (P04070 212-461 limits assumed): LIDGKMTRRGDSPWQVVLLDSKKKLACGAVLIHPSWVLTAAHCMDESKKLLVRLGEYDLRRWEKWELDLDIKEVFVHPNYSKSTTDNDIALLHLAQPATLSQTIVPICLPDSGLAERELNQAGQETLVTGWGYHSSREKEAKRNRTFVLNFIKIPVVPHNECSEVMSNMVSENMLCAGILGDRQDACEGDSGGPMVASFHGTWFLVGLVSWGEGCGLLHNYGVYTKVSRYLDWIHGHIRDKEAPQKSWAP
- TEST DETAILS: Inhibition of activated protein C assessed as S-2366 substrate hydrolysis by microplate reader analysis
pKi: −log10 of the molar value.

CCNCC(=O)N=S(C)(=O)c1ccc(C(=O)Nc2ccc(Cl)cc2C(=O)Nc2ccc(Cl)cn2)cc1 (configuration not stated)
< 4.70

Here is the next item to consider.
Notebook: CCN(CC)CC(=O)N=S(C)(=O)c1ccc(C(=O)Nc2ccc(Cl)cc2C(=O)Nc2ccc(Cl)cn2)cc1 (configuration not stated) , pKi read as < 4.70
